Molecular target: biotinylated CD59 (Homo sapiens)
Construct: Recombinant soluble human CD59 with an additional C-terminal cysteine residue
Sequence (P13987 26-102 limits assumed): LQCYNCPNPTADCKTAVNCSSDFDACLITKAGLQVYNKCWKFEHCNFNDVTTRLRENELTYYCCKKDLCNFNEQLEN
Assay: mRNA-display cyclic peptide screen against CD59-biotin, NGS abundance after 6th selection round
Conditions: average of Seq I and Seq II, sheet R6
Recorded Percentage of the pool, averaged across the two sequencing samples for the following sequences
Dear colleague, please return just the value in %, with no unit written.

Examples with their reported Percentage of the pool, averaged across the two sequencing samples follow.
INSERT INTO measurements (sequence_input, meas_value) VALUES
  ('CFSSRTSLISGV', 0.010),
  ('HVFGNRSLTRG', 0.016),
  ('CFSARAIHGSL', 0.011),
  ('YIRGTQDTFLF', 0.013),
  ('FVSGNRDHTRG', 0.012);

Which Percentage of the pool, averaged across the two sequencing samples is reported for this sequence? CFSRRLTVGAI 0.012

Which Percentage of the pool, averaged across the two sequencing samples is reported for this sequence? CFLNRASFSGI 0.014

Which Percentage of the pool, averaged across the two sequencing samples is reported for this sequence? SWTRGNRSSVRG 0.011

Which Percentage of the pool, averaged across the two sequencing samples is reported for this sequence? HVFGNRSSTRG 0.015

Which Percentage of the pool, averaged across the two sequencing samples is reported for this sequence? HAFGSRDIAYY 0.012

Which Percentage of the pool, averaged across the two sequencing samples is reported for this sequence? FVRGDMYSVLG 0.011

Which Percentage of the pool, averaged across the two sequencing samples is reported for this sequence? RRDRFDQCVL 0.010

Which Percentage of the pool, averaged across the two sequencing samples is reported for this sequence? CPRYVSRGFA 0.014

Which Percentage of the pool, averaged across the two sequencing samples is reported for this sequence? WTRGSKDYARG 0.011

Which Percentage of the pool, averaged across the two sequencing samples is reported for this sequence? GRYNECHFITS 0.014

Which Percentage of the pool, averaged across the two sequencing samples is reported for this sequence? HVFGNKSFTRG 0.018

* * *

Target: biotinylated CD59 (Homo sapiens, UniProt P13987)
Construct: Recombinant soluble human CD59 with an additional C-terminal cysteine residue
Sequence (P13987 26-102 limits assumed): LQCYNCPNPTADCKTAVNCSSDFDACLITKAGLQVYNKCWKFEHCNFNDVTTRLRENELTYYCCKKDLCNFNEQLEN
Assay: mRNA-display cyclic peptide screen against CD59-biotin, NGS abundance after 6th selection round
Settings: NGS sample Seq II, sheet R6 (6th selection round)
Threshold check on Counts (raw counts for peptide sequence), Seq II: at or above 7 gives YES, strictly below gives NO.

Record excerpt, results attached:
INSERT INTO results (sequence_input, group) VALUES
  ('CFVGRLTLTST', 'NO'),
  ('VVHGGKDYQWS', 'NO'),
  ('CFAGRLTIDAAAAAAARTGGG', 'YES'),
  ('CFSRRVTYPHQV', 'YES'),
  ('FVRGDLYSVLS', 'NO'),
  ('HVFGNRSLTRG', 'NO');

Check this sequence for Counts (raw counts for peptide sequence), Seq II at or above 7: FVTGNRDHTSG NO

Check this sequence for Counts (raw counts for peptide sequence), Seq II at or above 7: RTCHLRHDGPHA NO

Check this sequence for Counts (raw counts for peptide sequence), Seq II at or above 7: CFSRRLTVGAI NO

Check this sequence for Counts (raw counts for peptide sequence), Seq II at or above 7: CYAAGSASWSRG NO

Check this sequence for Counts (raw counts for peptide sequence), Seq II at or above 7: LNPQGHCLLKL YES

* * *

Target: biotinylated CD59 (Homo sapiens, UniProt P13987)
Construct: Recombinant soluble human CD59 with an additional C-terminal cysteine residue
Sequence (P13987 26-102 limits assumed): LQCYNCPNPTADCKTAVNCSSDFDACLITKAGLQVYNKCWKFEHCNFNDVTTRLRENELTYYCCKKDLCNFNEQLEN
Experiment: mRNA-display cyclic peptide screen against CD59-biotin, NGS abundance after 6th selection round
Details: NGS sample Seq II, sheet R6 (6th selection round)
Recorded Counts (raw counts for peptide sequence), Seq II for the following sequences

Examples with their reported Counts (raw counts for peptide sequence), Seq II follow.
INSERT INTO measurements (sequence_input, meas_value) VALUES
  ('FIRGNSTSVLC', 5),
  ('FVLGNRHTIVG', 6),
  ('DPYCPFFPEFR', 5),
  ('CFSRRLTEGAI', 5),
  ('SCSEWRRGTRS', 4);

Which Counts (raw counts for peptide sequence), Seq II is reported for this sequence? FVRGDLYSVIG 6

Which Counts (raw counts for peptide sequence), Seq II is reported for this sequence? CSSLRARGWI 3

* * *

Target: biotinylated CD59 (Homo sapiens, UniProt P13987)
Construct: Recombinant soluble human CD59 with an additional C-terminal cysteine residue
Sequence (P13987 26-102 limits assumed): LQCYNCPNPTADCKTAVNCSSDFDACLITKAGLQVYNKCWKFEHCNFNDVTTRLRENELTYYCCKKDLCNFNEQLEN
Test: mRNA-display cyclic peptide screen against CD59-biotin, NGS abundance after 6th selection round
Details: NGS sample Seq II, sheet R6 (6th selection round)
Label true (1) when Counts (raw counts for peptide sequence), Seq II < 7; otherwise false (0).

Record excerpt, results attached:
INSERT INTO assay_data (sequence_input, group) VALUES
  ('FVTGNRDNTRG', 'true (1)'),
  ('GRRNECLSRTS', 'true (1)'),
  ('SYGGRTFIYAWS', 'true (1)'),
  ('CFTGRLTIDAV', 'true (1)'),
  ('CAWGNRYTAYY', 'true (1)'),
  ('HVFGNKSFTRG', 'false (0)'),
  ('WAKGSDTFTSG', 'true (1)'),
  ('RVGSQFCAQL', 'false (0)'),
  ('HAFGSRDIAYY', 'true (1)'),
  ('GRLNECHVTWP', 'false (0)');

Say whether its Counts (raw counts for peptide sequence), Seq II is strictly beneath 7. Entry: HSYGSSQIAYH false (0)

Say whether its Counts (raw counts for peptide sequence), Seq II is strictly beneath 7. Entry: SAWGNRQIQCY true (1)

Say whether its Counts (raw counts for peptide sequence), Seq II is strictly beneath 7. Entry: CFSPRVTEHST false (0)

Say whether its Counts (raw counts for peptide sequence), Seq II is strictly beneath 7. Entry: WTRGSKDYARG true (1)

Say whether its Counts (raw counts for peptide sequence), Seq II is strictly beneath 7. Entry: FVTGNRDHTRV true (1)

Say whether its Counts (raw counts for peptide sequence), Seq II is strictly beneath 7. Entry: CYGGRSFIYAWS true (1)

* * *

Biological target: biotinylated CD59 (Homo sapiens)
Construct: Recombinant soluble human CD59 with an additional C-terminal cysteine residue
Sequence (P13987 26-102 limits assumed): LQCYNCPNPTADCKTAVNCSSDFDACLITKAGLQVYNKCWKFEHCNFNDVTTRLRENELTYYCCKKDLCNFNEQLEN
Assay: mRNA-display cyclic peptide screen against CD59-biotin, NGS abundance after 6th selection round
Conditions: counts normalised by total counts of sample Seq I; percentage of the pool, sheet R6
Label label 1 when Percentage Seq I < 0.03%; otherwise label 0.

INSERT INTO results (sequence_input, target_entity, group) VALUES
  ('YIVGSSDYTRG', 'biotinylated CD59 (Homo sapiens)', 'label 0');

Say whether its Percentage Seq I is strictly beneath 0.03%. Entry: CFAGRLTIGAV label 0

Say whether its Percentage Seq I is strictly beneath 0.03%. Entry: FVTGNRGHTRG label 1

Say whether its Percentage Seq I is strictly beneath 0.03%. Entry: SAWGSRQIQYY label 0

Say whether its Percentage Seq I is strictly beneath 0.03%. Entry: CFAGRLTEGV label 0

Say whether its Percentage Seq I is strictly beneath 0.03%. Entry: CFSARATLDGGW label 0

Say whether its Percentage Seq I is strictly beneath 0.03%. Entry: CFYQRTLGTTAS label 1

* * *

Target: biotinylated CD59 (Homo sapiens)
Construct: Recombinant soluble human CD59 with an additional C-terminal cysteine residue
Sequence (P13987 26-102 limits assumed): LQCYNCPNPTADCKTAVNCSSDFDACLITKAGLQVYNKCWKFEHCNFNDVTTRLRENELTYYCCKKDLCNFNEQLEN
Assay: mRNA-display cyclic peptide screen against CD59-biotin, NGS abundance after 6th selection round
Details: counts normalised by total counts of sample Seq I; percentage of the pool, sheet R6
Threshold check on Percentage Seq I: at or above 0.08% gives y, strictly below gives n.

Record excerpt, results attached:
INSERT INTO assay_data (sequence_input, target_entity, group) VALUES
  ('FVRGDLYSVFG', 'biotinylated CD59 (Homo sapiens)', 'n'),
  ('EARGTKSFAYY', 'biotinylated CD59 (Homo sapiens)', 'y'),
  ('CFSRRSTSSQST', 'biotinylated CD59 (Homo sapiens)', 'n'),
  ('CFVRRLNDLTTT', 'biotinylated CD59 (Homo sapiens)', 'y');

Check this sequence for Percentage Seq I at or above 0.08%: QWNRWYGMDER y

Check this sequence for Percentage Seq I at or above 0.08%: NTAWGNVAVAYF n

Check this sequence for Percentage Seq I at or above 0.08%: STWGNRNETRG n

Check this sequence for Percentage Seq I at or above 0.08%: SIRGGRDYTRG y

Check this sequence for Percentage Seq I at or above 0.08%: YIYWSFTSARG n

Check this sequence for Percentage Seq I at or above 0.08%: VVRGGTAFRYE n

Check this sequence for Percentage Seq I at or above 0.08%: CLDKWGRLWS y

Check this sequence for Percentage Seq I at or above 0.08%: HCWVRGSRDYT n

Check this sequence for Percentage Seq I at or above 0.08%: CFSRRLTAGAS n

Check this sequence for Percentage Seq I at or above 0.08%: GYLNECWYGLS y

Check this sequence for Percentage Seq I at or above 0.08%: SWTWGNRSSARG n

Check this sequence for Percentage Seq I at or above 0.08%: CFTYRLSDEPSA n

Check this sequence for Percentage Seq I at or above 0.08%: TSYGSRVFAYF n

Check this sequence for Percentage Seq I at or above 0.08%: VIWGSRLATGG n

Check this sequence for Percentage Seq I at or above 0.08%: CFTLRLSQTSV y

Check this sequence for Percentage Seq I at or above 0.08%: SAWGNWQIQYY n
